Ref: patent US6869913B1

# Tested on: velvetleaf (Abutilon theophrash)
# MEASUREMENT NOTES: Test Example 3: soil surface treatment on upland fields
# Type: in vivo
# CONDITION: 500 g/ha active ingredient; soil surface spray; examined after 19 days
# Protocol: Cylindrical plastic pots of 10 cm in diameter and […] in depth were filled with soil, in which the seeds of […] (Ipomoea hederacea var. integriuscula) and velvetleaf (Abutilon theophrash) were sowed. Each of the test compounds listed below was formulated into an emulsifiable concentrate according to Formulation Example 2, which was diluted with water to a prescribed concentration. […]
RECORDED METRIC: Herbicidal activity Velvetleaf

[[record]]
molecule = "C#CCOc1cc(-n2ncc(C(F)(F)F)c(C)c2=O)c(F)cc1Cl"
test_result = 5

[[record]]
molecule = "CCC(C)n1c(=O)sc2cc(F)c(-n3ncc(C(F)(F)F)c(C)c3=O)cc21 (stereo not drawn)"
test_result = 5

[[record]]
molecule = "C#CCN1C(=O)COc2cc(F)c(-n3nc(C)c(C(F)(F)F)cc3=O)cc21"
test_result = 5

[[record]]
molecule = "COC(=O)C1(C)Cc2c(c(Cl)cc(F)c2-n2ncc(C(F)(F)F)c(C)c2=O)O1 (stereo not drawn)"
test_result = 5

[[record]]
molecule = "COC(=O)C(C)Sc1cc(-n2ncc(C(F)(F)F)cc2=O)c(F)cc1Cl (stereo not drawn)"
test_result = 5

[[record]]
molecule = "C#CCN1C(=O)COc2cc(F)c(-n3ncc(C(F)(F)F)c(C)c3=O)cc21"
test_result = 5

[[record]]
molecule = "Cc1c(C(F)(F)F)cnn(-c2cc(OC(C)C)c(Br)cc2F)c1=O"
test_result = 5

[[record]]
molecule = "CCOC(=O)COc1cc(-n2ncc(C(F)(F)F)c(C)c2=O)c(F)cc1Cl"
test_result = 5

[[record]]
molecule = "Cc1c(C(F)(F)F)cnn(-c2cc(OC(C)C)c(Cl)cc2F)c1=O"
test_result = 5

[[record]]
molecule = "Cc1c(C(F)(F)F)cnn(-c2cc(O)c(Cl)cc2F)c1=O"
test_result = 5

[[record]]
molecule = "CCOC(=O)c1cc(-n2ncc(C(F)(F)F)c(C)c2=O)c(F)cc1Cl"
test_result = 5

[[record]]
molecule = "C#CCN1C(=O)COc2ccc(-n3ncc(C(F)(F)F)c(C)c3=O)cc21"
test_result = 5

[[record]]
molecule = "Cc1c(C(F)(F)F)cnn(-c2cc(NS(C)(=O)=O)c(Cl)cc2F)c1=O"
test_result = 5

[[record]]
molecule = "CCOC(=O)C(C)Nc1cc(-n2ncc(C(F)(F)F)c(C)c2=O)c(F)cc1Cl (stereo not drawn)"
test_result = 5

[[record]]
molecule = "CCOC(=O)C(C)Sc1cc(-n2ncc(C(F)(F)F)cc2=O)c(F)cc1Cl (stereo not drawn)"
test_result = 5

[[record]]
molecule = "Cc1c(C(F)(F)F)cnn(-c2cc(NS(=O)(=O)CCl)c(Cl)cc2F)c1=O"
test_result = 5

[[record]]
molecule = "C#CCN1C(=O)COc2cc(F)c(-n3ncc(C(F)(F)F)cc3=O)cc21"
test_result = 5

[[record]]
molecule = "O=c1cc(C(F)(F)F)cnn1-c1ccc(Cl)cc1"
test_result = 5


###

# System: barnyardgrass (Echinochloa oryzicola)
# MEASUREMENT NOTES: Test Example 4: flooding treatment on paddy fields
# Type: in vivo
# CONDITION: application amount of active ingredient 250 g/ha, examined 19 days after application, index 0 to 5
As shown below, each of these molecules has a reported Herbicidal activity Barnyardgrass value.
RECORDED METRIC: Herbicidal activity Barnyardgrass

[[record]]
molecule = "COC(=O)C1(C)Cc2c(c(Cl)cc(F)c2-n2ncc(C(F)(F)F)c(C)c2=O)O1 (stereo not drawn)"
test_result = 5

[[record]]
molecule = "Cc1c(C(F)(F)F)cnn(-c2cc(NS(C)(=O)=O)c(Cl)cc2F)c1=O"
test_result = 5

[[record]]
molecule = "Cc1c(C(F)(F)F)cnn(-c2c(F)cc(Cl)c3c2CC(C)(C)O3)c1=O"
test_result = 5


###

As shown below, each of these compounds has a reported Herbicidal activity Entireleaf morningglory value.
# Test system: entireleaf morningglory (Ipomoea hederacea var. integriuscula)
# MEASUREMENT NOTES: Test Example 3: soil surface treatment on upland fields
# Assay type: in vivo
# CONDITION: 500 g/ha active ingredient; soil surface spray; examined after 19 days
RECORDED METRIC: Herbicidal activity Entireleaf morningglory

[[record]]
compound = "C#CCN1C(=O)COc2cc(F)c(-n3ncc(C(F)(F)F)c(C)c3=O)cc21"
test_result = 5

[[record]]
compound = "CCOC(=O)C(C)Sc1cc(-n2ncc(C(F)(F)F)cc2=O)c(F)cc1Cl (stereo not drawn)"
test_result = 5

[[record]]
compound = "C#CCN1C(=O)COc2ccc(-n3ncc(C(F)(F)F)c(C)c3=O)cc21"
test_result = 5

[[record]]
compound = "COC(=O)C(C)Sc1cc(-n2ncc(C(F)(F)F)cc2=O)c(F)cc1Cl (stereo not drawn)"
test_result = 5

[[record]]
compound = "CCOC(=O)C(C)Nc1cc(-n2ncc(C(F)(F)F)c(C)c2=O)c(F)cc1Cl (stereo not drawn)"
test_result = 5

[[record]]
compound = "C#CCOc1cc(-n2ncc(C(F)(F)F)c(C)c2=O)c(F)cc1Cl"
test_result = 5

[[record]]
compound = "Cc1c(C(F)(F)F)cnn(-c2cc(NS(=O)(=O)CCl)c(Cl)cc2F)c1=O"
test_result = 5

[[record]]
compound = "CCOC(=O)COc1cc(-n2ncc(C(F)(F)F)c(C)c2=O)c(F)cc1Cl"
test_result = 5

[[record]]
compound = "Cc1c(C(F)(F)F)cnn(-c2cc(O)c(Cl)cc2F)c1=O"
test_result = 5

[[record]]
compound = "Cc1c(C(F)(F)F)cnn(-c2cc(OC(C)C)c(Br)cc2F)c1=O"
test_result = 5

[[record]]
compound = "Cc1c(C(F)(F)F)cnn(-c2cc(OC(C)C)c(Cl)cc2F)c1=O"
test_result = 5

[[record]]
compound = "C#CCN1C(=O)COc2cc(F)c(-n3nc(C)c(C(F)(F)F)cc3=O)cc21"
test_result = 5

[[record]]
compound = "C#CCN1C(=O)COc2cc(F)c(-n3ncc(C(F)(F)F)cc3=O)cc21"
test_result = 5

[[record]]
compound = "O=c1cc(C(F)(F)F)cnn1-c1ccc(Cl)cc1"
test_result = 5

[[record]]
compound = "COC(=O)C1(C)Cc2c(c(Cl)cc(F)c2-n2ncc(C(F)(F)F)c(C)c2=O)O1 (stereo not drawn)"
test_result = 5

[[record]]
compound = "CCOC(=O)c1cc(-n2ncc(C(F)(F)F)c(C)c2=O)c(F)cc1Cl"
test_result = 5

[[record]]
compound = "Cc1c(C(F)(F)F)cnn(-c2cc(NS(C)(=O)=O)c(Cl)cc2F)c1=O"
test_result = 5

[[record]]
compound = "CCC(C)n1c(=O)sc2cc(F)c(-n3ncc(C(F)(F)F)c(C)c3=O)cc21 (stereo not drawn)"
test_result = 5

